In this section, each of the molecules is paired with its reported melting point.

// worked examples, melting point included
| molecule | melting point |
| --- | --- |
| NC(=O)c1ccc(-c2cccc3cc(COc4cccc(C(F)(F)F)c4)sc23)cc1 | 191 to 192 °C |
| O=C(c1ccccc1)N1CCN(c2ccccc2)CCn2c1nc1ccccc12 | 217 to 220 °C |
| N#CC1CN1C(=O)c1ccc(Cl)nn1 (configuration not stated) | 109 to 115 °C |

q: // lookup melting point for CNC(=O)C(Cc1ccc(OC)cc1)NC(=O)C(C)(CC(C)C)c1c(S)cccc1Cl (configuration not stated)
a: 159 to 163 °C

q: If you can, please state the reported melting point value of CCc1cn(C2CC(O)C(CNC(=O)Cc3cccs3)O2)c(=O)[nH]c1=O (configuration not stated) .
a: 215 to 217 °C

q: Consider the molecule CC1(C)CCC(C)(C)c2cc(Oc3ccc4c(CO)cccc4c3)ccc21 and give its measured melting point.
a: 131 to 133 °C

q: Recorded melting point for Cc1ccc(N2C(=O)C(O)=C(C(=O)c3ccc(C(C)C)cc3)C2c2ccc(Cn3cncn3)cc2)nn1 (configuration not stated) , please?
a: 223 °C

q: For the molecule CC(C)(CC(=O)C(=O)Nc1ccc2c(c1)COC2=O)c1ccccc1 , what melting point is on record?
a: 132 to 134 °C

q: GET /values?readout=melting point&item= Cc1cc(C)cc(C(=O)OCC2(N3CCN(C(=O)OC(C)(C)C)CC3)Cc3ccccc3C2)c1
a: 139 °C

q: Which measured melting point value corresponds to BrCCCN(c1ccccc1)c1ccccc1 ?
a: 162 to 164 °C

q: For CC(CC(F)(F)F)C(=O)Nc1cnn(-c2cccnc2)c1 (configuration not stated) , what is its reported melting point?
a: 140 to 145 °C

q: Reported melting point, molecule CC(C)(C)c1ccc(-c2c(Cl)c(CN3C(=O)CCC3=O)nc3sc4c(c23)CCNC4)cc1 : ____
a: 210 to 212 °C

====

recorded-metric: melting point (°C)

| molecule | recorded-metric | result |
| --- | --- | --- |
| N#Cc1c(SC(F)(F)F)c(N)n(-c2ccc(C(F)(F)F)cc2)c1Br | melting point | 152 |
| CCCC(C)(O)C(=O)Nc1cc(Br)[nH]c(=O)c1 (stereo not drawn) | melting point | 188 |

====

In this section, each of the molecules is paired with its reported melting point.

Use these answered entries as a reference point.
| molecule | melting point |
| --- | --- |
| COc1c(C(=O)OCc2ccccc2)nc(-c2ccc(Cl)c(OC)c2F)c(F)c1N | 119 °C |
| COc1cc2c(cc1Nc1ncc(Cl)c(Nc3ccccc3S(=O)(=O)N3CCC(O)C3)n1)CCN(CC(C)O)CC2 (configuration not stated) | 197 to 199 °C |
| COC(=O)c1ccc(C(=O)NS(=O)(=O)c2ccc(C(=O)NCCc3ccccc3OC)cc2)cn1 | 220 to 222 °C |
| Oc1c(Cl)cc(NCCCCCCBr)cc1Cl | 182 to 183 °C |
| COc1ccc2c(C)c(C(=O)C34CC5CC(CC(C5)C3)C4)oc2c1 | 173 to 175 °C |
| COc1cc2c(Cl)c(C(N)=O)cnc2cc1F | 228 °C |

q: Tell me the measured melting point of C=CCON=C(CC)C1=C(O)CC(c2c(C)c(C)c3c(c2C)CC(C)(C)C3)CC1=O (configuration not stated) , please.
a: 63 to 65 °C

q: # get_value(readout='melting point', item= Nc1ncc(Br)c(NCC2(CO)CCC2)n1 )
a: 156 to 158 °C

q: Dear colleague, I am looking for the recorded melting point of the following molecule: COc1cc(F)cc2c1-c1c(F)cc(F)cc1C2=O
a: 164 to 166 °C

====

recorded-metric: melting point

Consider the following illustrative entries.
| compound | melting point |
| --- | --- |
| Cc1ccccc1-c1nc(-c2ccccc2Cl)n[nH]1 | 109 to 111 °C |
| CCCc1nc(C(C)=O)c(C#N)[nH]1 | 93 to 95 °C |
| COc1cc2ncnc(N3CCN(C(=S)Nc4ccc(Cc5ccncc5)cc4)CC3)c2cc1OC | 198 to 200 °C |
| ClCc1c(Cl)c(Cl)c(Cl)c(Cl)c1CCl | 83 to 84 °C |

Consider the record given below.
q: Give its melting point value. Item: CCOCCn1cc2c(C3C(=O)Nc4ccc(Cl)cc43)nc(NCCN(C)C)nc2n1 (stereo unspecified)
a: 293 to 295 °C

====

Overview of reported melting point across a group of compounds:

Below are worked cases with known answers.
| compound | result |
| --- | --- |
| CCOC(=O)c1ccccc1CN1C(=O)C(CCO)Oc2ccccc21 (stereo not given) | 114 to 116 °C |
| Cc1ccccc1C(=O)CN1C(=O)C(NC(=O)Nc2cccc(C(=O)NO)c2)CN(C(=O)C(C)(C)C)c2ccccc21 (stereo not given) | 192 to 196 °C |
| COc1ccc(C2(O)OC(=O)C(c3cc(C)c4nsnc4c3)=C2Cc2cc(OC)c(OC3CCCCC3)c(OC)c2)cc1F (stereo not given) | 163 to 164 °C |
| CCc1noc(-c2cn(-c3cccc(Oc4ccc(Cl)cc4)c3)cn2)n1 | 120 to 122 °C |

q: Which melting point value belongs to CC(C)CN(C)c1cc2c(cc1C#N)NC(=O)CC(c1cccc(-n3nncc3CN3CCCC3)c1)=N2 ?
a: 174 °C

q: Entry under review: OCCc1nccn1CCCCc1ccc(OCc2coc(/C=C/c3ccc(Cl)cc3)n2)cc1 . Reported melting point?
a: 127 to 128 °C

q: Entry under review: CC(C)(C)OC(=O)NC(C)(C)c1ccc(C(=O)CC#N)cc1 . Reported melting point?
a: 122 to 123 °C

q: Entry O=C1O[C@@H](CNC(=S)C(F)F)CN1c1ccc(N2CCCS(=O)(=O)CC2)c(F)c1 has what melting point?
a: 128 to 130 °C

q: Tell me the measured melting point of O=C(O)c1c[nH]c2c1C(=O)CCC2 , please.
a: 269 to 270 °C

q: Could you share which melting point value was measured for C=CCc1cc(C(=O)O)ccc1O ?
a: 119 to 123 °C

====

Parameter: melting point. Scope: all listed entries.

q: Suppose we examine the compound CC(C)(C)OC(=O)N1C[C@@H]2OCc3c(-c4ccccc4)nnn3[C@H]2C1 ; what melting point value has been reported?
a: 236 to 237 °C

====

recorded-metric: melting point

The cases that follow already have their melting point on record.
| compound | result |
| --- | --- |
| O=[N+]([O-])c1ccc(N2Cc3ccccc3P2(=O)c2ccccc2)cc1 (centres undefined) | 255 to 257 °C |
| O=Cc1cc(Br)cnc1N1CCC(CO)C1 (centres undefined) | 84 to 85.5 °C |

q: Consider the compound shown here: Cc1cc(C)cc(N(CCO)Cc2ccc3nc(NCCCN4CCOCC4)n(Cc4nc(C)c(C)nc4C)c3c2)c1 What is its recorded melting point?
a: 140 °C

q: Recorded melting point of O=c1c2ccc(Cl)cc2[nH]c2c(O)nn(C3CCOc4ccccc43)c(=O)c12 (racemic) , please.
a: > 300 °C

q: Look up melting point: COC(=O)C(OC(=O)c1ccc(C(=O)O)cc1)C(=O)OC
a: 104 to 107 °C

q: Which measured melting point value corresponds to COc1ccc(F)c2c(O)c(C=O)ccc12 ?
a: 156 to 158 °C

q: Quick one: melting point of COc1ccc(C(=O)OC2C=C(C)C(=O)CC(C)(C)C2O)cc1OC (centres undefined) ?
a: 161 to 164 °C

====

List of melting point values.

| compound | melting point |
| --- | --- |
| COC(=O)c1ccc(CCC(C)(C)NCC(O)c2cc3ccccc3o2)cc1 (configuration not stated) | 141 to 145 °C |
| CCC1OC(Cn2cncn2)(c2ccc(Cl)cc2Cl)OC1C (configuration not stated) | 109 to 113 °C |

q: Which melting point is listed for COC(=O)c1cc2nccnc2cc1NC(=O)OC(C)(C)C ?
a: 196 to 198 °C

q: Which value of melting point has been reported for CSc1cc(-c2nc3ccccc3[nH]2)no1 in the records?
a: 179 to 181 °C

====

recorded-metric: melting point

Reference set (10 entries):
| molecule | result |
| --- | --- |
| CC(C)[C@H](NC(=O)OCc1ccccc1)C(=O)c1ccc(OCc2ccccc2)cc1 | 75 to 77 °C |
| COc1ccc(CCNC(=O)CCCCC(=O)NCCc2cccc3ccccc23)cc1OC | 156 to 157 °C |
| CNC(=C[N+](=O)[O-])NCCSCc1ncccc1Cl | 166 °C |
| Nc1ncc(CCc2ccccc2)cc1[N+](=O)[O-] | 145 to 146 °C |
| CC(=O)c1cc(C2CCCCC2)ccc1O | < 50 °C |
| COc1ccc(C2=NN(C3CCN(S(=O)(=O)c4cccc(C(=O)O)c4)CC3)C(=O)C2(C)C)cc1OC | 244 °C |
| COCCC(=O)N[C@H]1CC[C@H](CCN2CCN(c3ncc(C)c4occc34)CC2)CC1 | 177 °C |
| COc1ccc(C(=O)CC2CCCCC2=O)cc1 (stereo not given) | 98 to 99 °C |
| C[Si](C)(C)NS(=O)(=O)c1ccccc1 | 62 to 63 °C |
| c1csc(CNc2nccc3ccccc23)c1 | 86.5 to 87.5 °C |

q: Dear colleague, I am looking for the recorded melting point of the following molecule: COc1ccc2oc(Cc3ccccc3OC)c(CC#N)c2c1
a: 122 °C

q: Record request: melting point value, item COCc1c(C(=O)OC(C)C)ncc2[nH]c3cccc(Oc4ccccn4)c3c12
a: 188 to 189 °C

q: What does the record list as melting point for Cc1nc(CC(C)C)c(CN)c(-c2ccc(Cl)cc2)c1C(=O)OC(C)(C)C ?
a: 81 to 83 °C

q: Name the reported melting point value associated with the molecule CC(=O)Nc1cccc2c1C(=O)c1c-2n[nH]c1-c1ccc(O)cc1
a: > 300 °C

q: Can you share its melting point? I mean this molecule: O=C(Cc1cc(F)cc(F)c1)Nc1ccc(NCc2ccc(F)cc2)nc1N1CCOCC1
a: 196 to 198 °C
